- PROTOCOL_NOTES: Pharmacokinetics in mice after intraperitoneal or oral administration
- Assay type: in vivo
- CONDITION: mouse, blood, intraperitoneal (IP)
REPORTED_METRIC: AUC(0-t) (ng·h/mL)

>>> print(df.to_string())
                                   compound  value_observed
0  CCCCC(=O)N1c2ccccc2NC2=C(C(=O)CCC2)C1c1ccccc1Cl (stereo not shown) [RBC10]           30300

====

- PROTOCOL_NOTES: Pharmacokinetics in mice after intraperitoneal or oral administration
- Format: in vivo
- CONDITION: mouse, blood, oral (PO)
REPORTED_METRIC: Tmax (h)

>>> print(df.to_string())
                                   compound  value_observed
0  CCCCC(=O)N1c2ccccc2NC2=C(C(=O)CCC2)C1c1ccccc1Cl (stereo not shown)               1
